Value source: patent US12692261B2

# Target: full-length human CSNK1A1 (Homo sapiens)
# Construct: N-terminal Glutathion-S-Transferase (GST) and full-length human CSNK1A1; purchased Life Technologies PV4174; host or cells: baculovirus infected insect cells
# Sequence (P48729 whole entry): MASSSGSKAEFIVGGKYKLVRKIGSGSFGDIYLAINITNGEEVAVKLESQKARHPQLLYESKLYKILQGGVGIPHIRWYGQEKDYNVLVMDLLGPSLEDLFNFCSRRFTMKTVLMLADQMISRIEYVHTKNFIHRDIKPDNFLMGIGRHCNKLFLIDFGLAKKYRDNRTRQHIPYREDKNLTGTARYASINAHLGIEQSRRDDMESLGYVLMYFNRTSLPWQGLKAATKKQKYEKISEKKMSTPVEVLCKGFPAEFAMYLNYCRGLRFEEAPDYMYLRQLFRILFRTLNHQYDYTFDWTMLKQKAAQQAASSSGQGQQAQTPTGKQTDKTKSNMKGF
# Protocol Text: CSNK1A1 High ATP Assay (ADP-Glo, 1 mM ATP);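 also: 30 min kinase reaction at 22 °C with 100 µM peptide substrate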
# Type: biochemical
# Test Conditions: Table 3, read-out: CSNK1A1 high ATP assay IC50 [mol/l] (median)
Property: pIC50
Please note pIC50 is a logarithmic value: minus log10 of concentration in mol/L. Answer with that number alone.

These solved cases illustrate the format of a correct answer.
Cc1cnc2c(-c3ccccn3)c(-c3ccnc(NC(=O)C(CC(F)F)c4ccc(F)cc4)c3)[nH]c2n1 (stereo not drawn) [Example 85] | 8.38
O=C(Nc1cc(-c2[nH]c3c(C4CCCO4)cc(F)nc3c2-c2ccccn2)ccn1)C(CC(F)F)c1ccc(F)cc1 (single isomer, unassigned) [Example 115] | 7.64
O=C(Nc1cc(-c2[nH]c3ncc(F)nc3c2-c2ccccn2)ccn1)C(CC(F)F)c1ccc(F)cc1 (single isomer, unassigned) [Example 64] | 7.64
O=C(Nc1cc(-c2[nH]c3nccnc3c2-c2ccccn2)ccn1)C(CC(F)F)c1ccc(F)cc1 (racemic) | 8.52
O=C(Nc1cc(-c2[nH]c3ccnnc3c2-c2ccccn2)ccn1)C(CC(F)F)c1ccc(F)cc1 (single isomer, unassigned) [Example 66] | 8.61

Would you kindly look at the next entry?
Record summary for O=C(Nc1cc(-c2[nH]c3cc(F)cnc3c2-c2ccccc2)ccn1)C(CC(F)F)c1ccc(F)cc1 (racemic) [Example 19] : reported pIC50 = 6.22

====

Observed pIC50 for full-length human CSNK1D (Homo sapiens), reported per entry below.
Conceptually, pIC50 converts a concentration in mol/L into minus its log10.

O=C(Nc1cc(-c2[nH]c3cccnc3c2-c2ccccc2)ccn1)C(CC(F)F)c1ccc(F)cc1 (single isomer, unassigned; (+)) [Example 24] | 8.61

Response field pIC50 (full-length human CSNK1D (Homo sapiens)) for item Cc1cc2[nH]c(-c3ccnc(NC(=O)C(CC(F)F)c4ccc(F)cc4)c3)c(-c3ccccn3)c2nc1F (single isomer, unassigned) [Example 35] : 8.43

O=C(Nc1cc(-c2[nH]c3cccnc3c2-c2cccc(F)n2)ccn1)C(CC(F)F)c1ccc(F)cc1 (racemic) [Example 25] tested on full-length human CSNK1D (Homo sapiens) gave pIC50: 8.10

I looked up O=C(Nc1cc(-c2[nH]c3ccc(F)nc3c2-c2cc(F)ccn2)ccn1)C(CC(F)F)c1ccc(F)cc1 (racemic) [Example 95] and its pIC50 for full-length human CSNK1D (Homo sapiens) was 7.98

full-length human CSNK1D (Homo sapiens) pIC50 of O=C(Nc1cc(-c2[nH]c3c(OC[C@@H]4COCCO4)cc(F)nc3c2-c2ccccn2)ccn1)C(CC(F)F)c1ccc(F)cc1 (single isomer, unassigned) [Example 58] is 8.52

pIC50 for full-length human CSNK1D (Homo sapiens) with input COc1cc(F)nc2c(-c3ccccn3)c(-c3ccnc(NC(=O)C(CC(F)F)c4ccc(F)cc4)c3)[nH]c12 (single isomer, unassigned; (-)) [Example 41] equals 8.38

====

# Target: full-length human CSNK1A1 (Homo sapiens)
# Construct: N-terminal Glutathion-S-Transferase (GST) and full-length human CSNK1A1; purchased Life Technologies PV4174; host or cells: baculovirus infected insect cells
# Protocol Text: CSNK1A1 High ATP Assay (ADP-Glo, 1 mM ATP);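 also: 30 min kinase reaction at 22 °C with 100 µM peptide substrate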
# Type: biochemical
# Test Conditions: Table 3, read-out: CSNK1A1 high ATP assay IC50 [mol/l] (median)
Property: pIC50
Interpret pIC50 as the negative base-10 log of the concentration measured in mol/L.

Cc1cc(F)nc2c(-c3ccccn3)c(-c3ccnc(NC(=O)C(CC(F)F)c4ccc(F)cc4)c3)[nH]c12 (single isomer, unassigned; (-)) [Example 38] | 8.65
O=C(Nc1cc(-c2[nH]c3ccc(F)nc3c2-c2cc(F)ccn2)ccn1)C(CC(F)F)c1ccc(F)cc1 (single isomer, unassigned) [Example 96] | 8.33
COc1cc(F)nc2c(-c3ccccn3)c(-c3ccnc(NC(=O)C(CC(F)F)c4ccc(F)cc4)c3)[nH]c12 (single isomer, unassigned; (+)) [Example 40] | 8.43

For this molecule ( O=C(Nc1cc(-c2[nH]c3cc(F)cnc3c2-c2ccccc2)ccn1)C(CC(F)F)c1ccc(F)cc1 (single isomer, unassigned; (-)) [Example 20] ), measured pIC50 is 5.00

# pIC50 of O=C(Nc1cc(-c2[nH]c3cccnc3c2-c2ncccn2)ccn1)C(CC(F)F)c1ccc(F)cc1 (racemic) = 6.66

Measured pIC50 of COc1cnc2c(-c3ccccn3)c(-c3ccnc(NC(=O)C(CC(F)F)c4ccc(F)cc4)c3)[nH]c2c1 (stereo not drawn) [Example 81] : 8.40

Lookup result for O=C(Nc1cc(-c2[nH]c3c(N4CCOCC4)cc(F)nc3c2-c2ccccn2)ccn1)C(CC(F)F)c1ccc(F)cc1 (racemic) ; measured pIC50: 7.98

The molecule listed as O=C(Nc1cc(-c2[nH]c3c(Cl)ccnc3c2-c2ccccn2)ccn1)C(CC(F)F)c1ccc(F)cc1 (racemic) shows pIC50 equal to 8.44

Entry under test: COCCOc1cc(F)nc2c(-c3ccccn3)c(-c3ccnc(NC(=O)C(CC(F)F)c4ccc(F)cc4)c3)[nH]c12 (single isomer, unassigned) [Example 90] . Its pIC50 was 8.61

Lab note: measured pIC50 of Cc1cc(F)nc2c(-c3ccccn3)c(-c3ccnc(NC(=O)C(CC(F)F)c4ccc(F)cc4)c3)[nH]c12 (single isomer, unassigned; (+)) [Example 37] was 8.40

Input O=C(Nc1cc(-c2[nH]c3cc(Cl)cnc3c2-c2ccccn2)ccn1)C(CC(F)F)c1ccc(F)cc1 (stereo not drawn) [Example 87] . Output pIC50: 8.22

# molecule COc1cnc2c(-c3ccccn3)c(-c3ccnc(NC(=O)C(CC(F)F)c4ccc(F)cc4)c3)[nH]c2n1 (single isomer, unassigned) [Example 102] ; its pIC50 = 7.51

====

Below, each entry is listed alongside its reported IC50.
# Target: wild-type Epidermal Growth Factor Receptor (EGFR) (Homo sapiens, UniProt P00533)
# Construct: a fragment of human EGFR (amino acids R669 to A1210); made in house; host or cells: Sf9 insect cells
# Sequence (P00533 669-1210): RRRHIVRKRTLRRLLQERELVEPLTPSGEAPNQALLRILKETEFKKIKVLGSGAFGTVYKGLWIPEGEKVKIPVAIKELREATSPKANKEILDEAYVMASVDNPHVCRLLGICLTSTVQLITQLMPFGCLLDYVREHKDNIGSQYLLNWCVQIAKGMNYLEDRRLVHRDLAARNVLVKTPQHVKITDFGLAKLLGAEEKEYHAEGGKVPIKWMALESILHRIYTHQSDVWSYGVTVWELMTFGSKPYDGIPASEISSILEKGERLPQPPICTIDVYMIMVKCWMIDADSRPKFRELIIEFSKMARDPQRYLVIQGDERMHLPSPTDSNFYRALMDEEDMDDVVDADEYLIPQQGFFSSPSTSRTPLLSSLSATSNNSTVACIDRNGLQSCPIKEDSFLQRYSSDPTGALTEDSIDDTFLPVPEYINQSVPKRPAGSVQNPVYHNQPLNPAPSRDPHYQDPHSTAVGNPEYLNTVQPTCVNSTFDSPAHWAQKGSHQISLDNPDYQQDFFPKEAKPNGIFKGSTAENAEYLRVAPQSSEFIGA
# Protocol Text: WT-EGFR Kinase Assay (TR-FRET, 2 mM ATP)
# Type: biochemical
# Test Conditions: EGFR Wildtyp 2 mM ATP IC50 [mol/l] (median), Table 4
# Source text: Inhibitory activity of compounds of the present invention against wild-type Epidermal Growth Factor Receptor (EGFR) was quantified employing the TR-FRET based EGFR assay as described in the following paragraphs. Recombinant fusion protein of N-terminal Glutathion-S-Transferase (GST) and a fragment of human EGFR (amino acids R669 to A1210), expressed in Sf9 insect cells and purified via affinity chromatography using Glutathion Sepharose as described above, was used as kinase. […]

Solved entries (count: 2):
Cc1ccnc2c(-c3ccccn3)c(-c3ccnc(NC(=O)C(CC(F)F)c4ccc(F)cc4)c3)[nH]c12 (stereo not drawn) | > 20 µM
O=C(Nc1cc(-c2[nH]c3cccnc3c2-c2ccccc2)ccn1)C(CC(F)F)c1ccc(F)cc1 (single isomer, unassigned; (-)) [Example 23] | > 20 µM

As a next step, examine the compound that follows.
// sample O=C(Nc1cc(-c2[nH]c3cccnc3c2-c2ccccn2)ccn1)C(CC(F)F)c1ccc(F)cc1 (single isomer, unassigned; (+)) [Example 11] , its IC50 was > 20 µM

====

# Target: full-length human CSNK1A1 (Homo sapiens)
# Construct: N-terminal Glutathion-S-Transferase (GST) and full-length human CSNK1A1; purchased Life Technologies PV4174; host or cells: baculovirus infected insect cells
# Protocol Text: CSNK1A1 Assay 2 (ADP-Glo, 1 μM ATP, substrate biotin-Ahx-KRRRAL-pS-VASLPGL)
# Assay type: biochemical
# Test Conditions: Table 3, read-out: CSNK1A1 Assay 2 IC50 [mol/l] (median)
# Description: CSNK1A1-inhibitory activity of compounds of the present invention in presence of 1 μM adenosine-tri-phosphate (ATP) was quantified employing the CSNK1A1 assay as described in the following paragraphs. In essence, the enzyme activity is measured by quantification of the adenosine-di-phosphate (ADP), which is generated as a co-product of the enzyme reaction, via the “ADP-Glo™ Kinase Assay” kit from the company Promega. […]
Property: IC50 (nM)
Quick reminder: number only, in nM, skip the unit.

Please review the following examples before continuing.
O=C(Nc1cc(-c2[nH]c3c(N4CCNCC4)ccnc3c2-c2ccccn2)ccn1)C(CC(F)F)c1ccc(F)cc1 (single isomer, unassigned) [Example 93] | 5.35
O=C(Nc1cc(-c2[nH]c3nc(OC(F)F)cnc3c2-c2ccccn2)ccn1)C(CC(F)F)c1ccc(F)cc1 (single isomer, unassigned) [Example 106] | 4.32

Next, consider the following compound.
The reported IC50 of the compound O=C(Nc1cc(-c2[nH]c3c(N4CCNCC4)ccnc3c2-c2ccccn2)ccn1)C(CC(F)F)c1ccc(F)cc1 (single isomer, unassigned) [Example 94] was 2.31
